FYI, the data here is from BigSolDB 2.1.

- MEASUREMENT CONDITIONS: in n-propyl acetate, 323.15 K
MEASUREMENT KIND: solubility (mole fraction)
Number only, no unit.

Please look up its solubility (mole fraction): CCCSc1ccc2nc(NC(=O)OC)[nH]c2c1
0.0013

###

- MEASUREMENT CONDITIONS: in n-propanol, 308.15 K
MEASUREMENT KIND: solubility (mole fraction)

Return reported solubility (mole fraction); argument: CCCSc1ccc2nc(NC(=O)OC)[nH]c2c1
0.000423

###

- MEASUREMENT CONDITIONS: in isobutyl acetate, 288.15 K
MEASUREMENT KIND: solubility (mole fraction)

Recorded solubility (mole fraction) of CCCSc1ccc2nc(NC(=O)OC)[nH]c2c1 , please.
0.000594

###

- MEASUREMENT CONDITIONS: in acetone, 318.15 K
MEASUREMENT KIND: solubility (mole fraction)

What value of solubility (mole fraction) has been reported for the following compound? CCCSc1ccc2nc(NC(=O)OC)[nH]c2c1
0.00528

###

- MEASUREMENT CONDITIONS: in n-propanol, 323.15 K
MEASUREMENT KIND: solubility (mole fraction)
Form rule: numeric answer, no unit written next to it.

# input compound: CCCSc1ccc2nc(NC(=O)OC)[nH]c2c1 ; wanted: its solubility (mole fraction)
0.000624

###

- MEASUREMENT CONDITIONS: in acetone, 303.15 K
MEASUREMENT KIND: solubility (mole fraction)
Respond with the number and no other words.

Returns the measured solubility (mole fraction) for the input molecule. Input: CCCSc1ccc2nc(NC(=O)OC)[nH]c2c1
0.00349

###

- MEASUREMENT CONDITIONS: in ethyl acetate, 308.15 K
MEASUREMENT KIND: solubility (mole fraction)
The response must contain the number and no unit.

Query (molecule): CCCSc1ccc2nc(NC(=O)OC)[nH]c2c1 ; field requested: solubility (mole fraction)
0.00119

###

- MEASUREMENT CONDITIONS: in n-butyl acetate, 323.15 K
MEASUREMENT KIND: solubility (mole fraction)
# print the numeric value only

solubility (mole fraction) for CCCSc1ccc2nc(NC(=O)OC)[nH]c2c1 ?
0.00146

###

- MEASUREMENT CONDITIONS: in ethanol, 323.15 K
MEASUREMENT KIND: solubility (mole fraction)
Reply with just the number.

Given CCCSc1ccc2nc(NC(=O)OC)[nH]c2c1 , state its recorded solubility (mole fraction).
0.000452

###

- MEASUREMENT CONDITIONS: in n-propyl acetate, 298.15 K
MEASUREMENT KIND: solubility (mole fraction)

Given the compound CCCSc1ccc2nc(NC(=O)OC)[nH]c2c1 , what is its reported solubility (mole fraction)?
0.000777

###

- MEASUREMENT CONDITIONS: in n-propanol, 303.15 K
MEASUREMENT KIND: solubility (mole fraction)

What value of measured solubility (mole fraction) is listed for CCCSc1ccc2nc(NC(=O)OC)[nH]c2c1 ?
0.000371

###

- MEASUREMENT CONDITIONS: in ethanol, 288.15 K
MEASUREMENT KIND: solubility (mole fraction)
Returns: the value as a bare number; no unit string appended.

For the molecule CCCSc1ccc2nc(NC(=O)OC)[nH]c2c1 , what solubility (mole fraction) is on record?
9.39e-05
